- Test system: MDA-MB-435 melanoma
- method_description: NCI-60 one-dose screen, 48 h (100 = growth as untreated, 0 = no growth, -100 = all killed)
- run_conditions: 10 µM unless noted
- Method: Growth inhibition of the MDA-MB-435 human Melanoma tumor cell line is measured as a screen for anti-cancer activity. Cells are grown in 96 well plates and exposed to the test compound for 48 hours. Compounds are tested at a single concentration, which is 10^-5 M for most compounds. The reported endpoint is percent growth (GI% or GIPRCNT), where numbers from 0 - 100% represent growth inhibition, and numbers from -100% - 0 represent cell death. […]
This is part of a sample that, as a whole, favours compounds with a hit. Of some 83,000 tested, about 20% had one in any assay.
# label = fulfilled if growth >= 90% else not fulfilled

Q: Test whether the compound C=CC(=O)NCCOc1cccc(Nc2cc(NCCCNC(=O)C3CCC3)c(Br)cn2)c1 records growth of 90% or higher.
Result: not fulfilled

Q: Test whether the compound Cc1[nH]c(C(=O)Nc2cccc(OC3CCNCC3)c2)c(Cl)c1Cl records growth of 90% or higher.
Result: not fulfilled

Q: Test whether the compound COc1cc2cc(NCc3ccc(OC(F)F)cc3)nc(C)c2cc1OC records growth of 90% or higher.
Result: not fulfilled

Q: Test whether the compound COc1ccc(NC(=O)c2sc3nc4c(cc3c2N)CCCC4)cc1 records growth of 90% or higher.
Result: not fulfilled

Q: Test whether the compound COc1ccc(C(c2cc(OC)c(OC)c(OC)c2)N2CCN(Cc3ccccc3)CC2)cc1 (stereo not given) records growth of 90% or higher.
Result: not fulfilled

Q: Test whether the compound COc1ccc(C2CC(c3ccc4c(c3)OCO4)=Nc3c(N)ncnc3N2)cc1 (stereo not given) records growth of 90% or higher.
Result: fulfilled

Q: Test whether the compound N=C(N)SCc1cccc2c(CSC(=N)N)cccc12 records growth of 90% or higher.
Result: fulfilled

Q: Test whether the compound Oc1c(I)cc(-c2nc3ccccc3s2)cc1CN(Cc1ccccn1)Cc1ccccn1 records growth of 90% or higher.
Result: not fulfilled

Q: Test whether the compound Cc1nc2sc(C(=O)Nc3ccccc3)c(N)c2cc1C(=O)/C=C/c1ccccc1 records growth of 90% or higher.
Result: not fulfilled

Q: Test whether the compound CNCc1cccc2c1OCCOCCN(C)C(=O)CN(C)S(=O)(=O)c1ccc(cc1)-c1cnc(N)c(n1)C(=O)N2 records growth of 90% or higher.
Result: not fulfilled

Q: Test whether the compound COc1ccc(/C=C/C(=O)c2ccc(NC(=O)CSc3nnc(-c4cc(-c5ccccc5)nc5ccccc45)n3-c3ccccc3)cc2)cc1 records growth of 90% or higher.
Result: fulfilled

Q: Test whether the compound Cc1ccccc1OCC(O)COc1ccccc1C records growth of 90% or higher.
Result: fulfilled

Q: Test whether the compound O=C(/C=C/c1ccc(Br)cc1)c1ccc(-n2cc(CN3CCN(c4cc5c(cc4F)c(=O)c(C(=O)O)cn5C4CC4)CC3)nn2)cc1 records growth of 90% or higher.
Result: not fulfilled

Q: Test whether the compound COC(c1ccc2ccccc2c1)C(C)C(F)F (stereo not given) records growth of 90% or higher.
Result: fulfilled

Q: Test whether the compound O=C(CCCCCCN1CC(=O)N2[C@@H](c3ccc(Cl)cc3)c3[nH]c4ccccc4c3C[C@H]2C1=O)NO records growth of 90% or higher.
Result: not fulfilled

Q: Test whether the compound CC(C)(C)c1cc(C=Nc2cccc(C(F)(F)F)c2)c(O)c(C(C)(C)C)c1 records growth of 90% or higher.
Result: fulfilled

Q: Test whether the compound CCNC(=O)Oc1ccc(/C(=C(/C)Cc2ccc(OC)cc2)c2ccc(OCCN3CCCCCC3)cc2)cc1 records growth of 90% or higher.
Result: not fulfilled

Q: Test whether the compound COc1ccc2c(c1)c(-c1nc(-c3cn(C)c4ncccc34)cs1)cn2CCO records growth of 90% or higher.
Result: not fulfilled

Q: Test whether the compound CCCCCCCCn1ccc2cc(NC(=O)Cn3cc(CN4CCOCC4)nn3)ccc21 records growth of 90% or higher.
Result: fulfilled
